# METHOD_SUMMARY: folding stability dG unfold (combined trypsin and chymotrypsin); higher = more stable
Returns one of T or F; T when folding stability dG unfold is >= 10 kJ/mol.

Completed entries (count: 2):
SAGMELKVEIVAPKEVLLEKVKELEATIKKAFPKVKVEVEAKIEPLEGDEWKATVVIKIEPLPEDEPAESAG [r5_936_TrMRF] = T
SAGGSAGGSAGGNVPIPFLPEGFDVEVKKIEVPTPGKVKLVLVPKNSDEEFELEFSPEELSAGGSAGGSAGG [r7_342_TrMRF] = F

Assess whether reported folding stability dG unfold for SAGGSAGGSAPKEVVVLDLKISPVPDPRYFPAEFTVYIPENGKPFPVTAVFDPEGGEVTIGSAGGSAGGSAG [r3_1_TrMRF] sits at 10 kJ/mol or higher.
T

Next: SAMTITVPPDVSLEQIAKLLGYPNLKSFTKRKVTPNLTPATLTVPEDPNKVIKVLYRPADNYTEVIVLQSAG [r14_713_JUSTAS]
F

Next: SAGTIHFMVPRDEMSDEEAEDIVNTIAKHFPGFKIDRIYWHKQPDPDGDPRRMYHVEIKIKIPLPPGMKSAG [r5_835_TrROS]
F

Next: SAGGSAGGSAGGIGEGTPIERLIEGKPIPFYVDESTGKAYYTLPEDKKIETTIEDPEKVSAGGSAGGSAGGS [r10_1185_TrMRF]
F

Next: SAGGSAGGSAGGLIPPNQKIKIKEIEPPNNEMNIDLEYPDNGKKVEFPFDSPEQALDALSAGGSAGGSAGGS [r10_1038_TrROS]
F

Next: SAGGKEVKPIKGKVKITVNGKEIEVEVKKAKIVKNKDGSYYIFIEKDGKKLLIKLKNGKLVKIEEVPSAGGS [r16_721_TrROS_Hall]
T

Next: SAGGSAGGSAMIEISEEELEKLLAETPEEEAKEVKIERIPDIGLINVTIPSGKVIKVKIKESAGGSAGGSAG [r3_291_JUSTAS]
F

Next: SAGGSAGGSAGSPMSAEEVEERLREELRRELGPDYTVTVTVTEVLPEGVYVVSVTVTGPASAGGSAGGSAGG [r11_153_JUSTAS]
F

Next: SAGGSAGGWVEQTYMVPPDMPVNMIKNKLEPWGVEIDDVEPFPNGNSIVTITIPPEFLKDPDEKSAGGSAGG [r6_470_TrROS]
F

Next: SAGGSAGGSAGGSMKIELPEGAEITEIKKLPNGTYEMTIRVDGKELKIRFVDGKLVIVPSAGGSAGGSAGGS [r4_280_TrROS_Hall]
T

Next: SAGGRAVLLATFTTPDGSLVLVYEDPATGRVLVVSFDPSTGRVSVLRLRRVPNTGDLFIEDRATFPLSSAGG [r19_249_TrMRF]
T

Next: SAEKKTVRVVLEITLPPGLKPGDTITVKIEVDGKVYEAKILRVEEVPPGQTVRIVLELPAEDVKITIEPSAG [r14_554_TrROS_Hall]
T

Next: SAGGSAGGSAGGIKKGDKIKIVKVKVEKRYDKDGKLVEERIVSIEEEEIEVPSLEDLLKASAGGSAGGSAGG [r7_439_TrROS_Hall]
F

Next: SAGGIAEAIGEAIAKAPGVAEVEVDIEITKIEPTPGDGAYAHIDIRVRARHPVTGEEVELRFDIVFPLDSAG [r5_176_TrMRF]
T

Next: SAGGSAGGSAGMPLPIKTLTEVSTVEGVGITLTALDNGLVIVEKSDGKVTVIPLSAYEAQSAGGSAGGSAGG [r11_254_JUSTAS]
F

Next: SAGMKITVVELDGKSPEELSEEELKKLAEELLKELFPDVKKVKKVTVKVERLPDGRLVLVEVEIEVEEPSAG [r5_526_TrROS_Hall]
F

Next: SAGGSAGGSETRVLVRPLDGAIVIEAYRRLPDGSWVLAERIVIPTKGDDPESIARAQEVIDKLSAGGSAGGS [r12_169_TrMRF]
T

Next: SMKPGDWKWIMFRFPDAENMEITIPIPLPPGYRVWFFFMNGERHEIPAGQEIKFKMPPGEPMWMMIWIWKSA [r9_79_TrROS]
T

Next: SAGGSAYGKKKNDPDGNPKYEMEPQPTIEVPVTIPIFDNNNNPLLEIPIPASMPISDINDEIKDLFSAGGSA [r15_309_TrROS]
F

Next: SAGGMKIVSIEYDKENKKITIKVEAPPGVSAEELAKKIKELAKELFGKEIEIEVKVEKVEFFEPEEESAGGS [r8_314_TrROS_Hall]
T

Next: SAGGSAGGSSMPTMTKVGDTWLYYDPSTDIKRPATVTVDDGKITIDGDSGTTVYDGDLVIETSSAGGSAGGS [r12_683_JUSTAS]
F

All values here come from the supplement of paper PMC12764529.
